target: BRD4-BD2 (Homo sapiens (Human)); assay: BRD4 biochemical activity test (TR-FRET), BD2; conditions: read-out: BRD4 Binding (BD2), IC50
Listed here are compounds together with their documented IC50.
Give the number first and the unit second.

- SMILES STR: "Cc1sc2c(c1C)C(c1ccc(Cl)cc1)=N[C@@H](CC(=O)Nc1ccc3c(c1)CNC3)c1nnc(C)n1-2"
  OBSERVED MEASUREMENT: "8 nM"
- SMILES STR: "Cc1sc2c(c1C)C(c1ccc(Cl)cc1)=N[C@@H](CC(=O)Nc1ccc3c(c1)C(=O)SC3)c1nnc(C)n1-2"
  OBSERVED MEASUREMENT: "10 nM"
- SMILES STR: "Cc1sc2c(c1C)C(c1ccc(Cl)cc1)=N[C@@H](CC(=O)Nc1ccc3c(c1)OCCOCCOCCO3)c1nnc(C)n1-2"
  OBSERVED MEASUREMENT: "5 nM"

// Cc1sc2c(c1C)C(c1ccc(Cl)cc1)=N[C@@H](CC(=O)Nc1ccc3c(c1)CN(C(N)=O)C3)c1nnc(C)n1-2 : IC50 value = 11 nM

// Cc1sc2c(c1C)C(c1ccc(Cl)cc1)=N[C@@H](CC(=O)Nc1ccc3c(c1)C(=O)NC3)c1nnc(C)n1-2 : IC50 value = 11 nM

// Cc1sc2c(c1C)C(c1ccc(Cl)cc1)=N[C@@H](CC(=O)Nc1ccn3c(=O)c(O)cnc3c1)c1nnc(C)n1-2 : IC50 value = 9 nM

// Cc1sc2c(c1C)C(c1ccc(Cl)cc1)=N[C@@H](CC(=O)Nc1ccc3c(c1)COC3)c1nnc(C)n1-2 : IC50 value = 12 nM

// Cc1sc2c(c1C)C(c1ccc(Cl)cc1)=N[C@@H](CC(=O)Nc1ccc3c(c1)C(=O)OC3)c1nnc(C)n1-2 : IC50 value = 9 nM

// Cc1sc2c(c1C)C(c1ccc(Cl)cc1)=N[C@@H](CC(=O)Nc1ccc3c(c1)CNC3=O)c1nnc(C)n1-2 : IC50 value = 10 nM

// Cc1sc2c(c1C)C(c1ccc(Cl)cc1)=N[C@@H](CC(=O)Nc1ccc3c(c1C)COC3)c1nnc(C)n1-2 : IC50 value = 20 nM

// Cc1sc2c(c1C)C(c1ccc(Cl)cc1)=N[C@@H](CC(=O)Nc1ccc3c(c1)CC(F)(F)C3)c1nnc(C)n1-2 : IC50 value = 34 nM

// Cc1sc2c(c1C)C(c1ccc(Cl)cc1)=N[C@@H](CC(=O)Nc1cc3c(cc1F)COC3)c1nnc(C)n1-2 : IC50 value = 16 nM

// Cc1sc2c(c1C)C(c1ccc(Cl)cc1)=N[C@@H](CC(=O)Nc1ccc3c(c1)C(C)(C)OC3=O)c1nnc(C)n1-2 : IC50 value = 11 nM

// CC(=O)N1Cc2ccc(NC(=O)C[C@@H]3N=C(c4ccc(Cl)cc4)c4c(sc(C)c4C)-n4c(C)nnc43)cc2C1 : IC50 value = 7 nM

// Cc1sc2c(c1C)C(c1ccc(Cl)cc1)=N[C@@H](CC(=O)Nc1ccc3c(c1)[C@H]1CC[C@@H]3O1)c1nnc(C)n1-2 : IC50 value = 12 nM

// Cc1sc2c(c1C)C(c1ccc(Cl)cc1)=N[C@@H](CC(=O)Nc1cc3c(cc1Cl)COC3)c1nnc(C)n1-2 : IC50 value = 15 nM

// Cc1sc2c(c1C)C(c1ccc(Cl)cc1)=N[C@@H](CC(=O)Nc1ccc3nonc3c1)c1nnc(C)n1-2 : IC50 value = 19 nM

// Cc1sc2c(c1C)C(c1ccc(Cl)cc1)=N[C@@H](CC(=O)Nc1ccc3c(c1)CN(S(C)(=O)=O)C3)c1nnc(C)n1-2 : IC50 value = 8 nM

// Cc1sc2c(c1C)C(c1ccc(Cl)cc1)=N[C@@H](CC(=O)Nc1ccc3c(c1)C(=O)NC3=O)c1nnc(C)n1-2 : IC50 value = 10 nM

// Cc1sc2c(c1C)C(c1ccc(Cl)cc1)=N[C@@H](CC(=O)Nc1ccc3c(c1)C[C@@H](F)C3)c1nnc(C)n1-2 : IC50 value = 17 nM
